Where do these numbers come from? They come from patent US20090304651A1.

# Kd listing for each entry below
# assayed_target: T1, recombinant human IGF-II (Insulin-like Growth Factor II) (human, UniProt P01344 25-91, biotinylated (Biotinyl-IGF-II, GroPep) where immobilised in SPR, site not stated; not biotinylated in ITC and as SPR analyte)
# T1 construct: also called IGF2; IGF-2
# T1 sequence (P01344 25-91 limits assumed): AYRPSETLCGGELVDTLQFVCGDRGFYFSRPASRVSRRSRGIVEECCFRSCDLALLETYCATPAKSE
# experiment_notes: SPR, IGF-II immobilised, kinetic fit
# output: bare number, implied unit nM

binder: IGF2R domain 11 with threonine at position 1544 (E1544T) (receptor) NEHDDCQVTNPSTGHLFDLSSLSGRAGFTAAYSTKGLVYMSICGENENCPPGVGACFGQTRISVGKANKRLRYVDQVLQLVYKDGSPCPSKSGLSYKSVISFVCRPEAGPTNRPMLISLDKQTCTLFFSWHTPLACEQATHHHHHH
unit_text: nM
number: 69.3

In: What measured Kd goes with IGF2R domain 11 with methionine at position 1544 (E1544M) (receptor) NEHDDCQVTNPSTGHLFDLSSLSGRAGFTAAYSMKGLVYMSICGENENCPPGVGACFGQTRISVGKANKRLRYVDQVLQLVYKDGSPCPSKSGLSYKSVISFVCRPEAGPTNRPMLISLDKQTCTLFFSWHTPLACEQATHHHHHH ?
Out: 44.6
